- ASSAY_INFO: qHTS assay to identify small molecule agonists of the estrogen receptor beta (ER-beta) signaling pathway - cell viability counter screen (AID 1259380); also: nearly all actives have a fitted effect of over 30% in size
- REPORTED_CONDITIONS: ER-beta-bla HEK293T viability, CellTiter-Glo luminescence, 16 h; series mostly up to 92.4 µM
- Source text: National Center for Advancing Translational Sciences [NCATS] NIH Chemical Genomics Center [NCGC] U.S. Environmental Protection Agency [EPA] National Institutes of Environmental Health Sciences [NIEHS] National Toxicology Program [NTP] U.S. Food and Drug Administration [FDA] Estrogen receptor (ER), a nuclear hormone receptor, plays an important role in development, metabolic homeostasis and reproduction. […]
Records with an inconclusive call do not appear. The source made the active and inactive calls. Calls follow the shape of the dose curve; as a rule, active = well fitted cell-killing curve with a large enough effect in the repeat runs; inconclusive = weak or mixed curves, or effect the other way; inactive = flat fitted curve, though single readings scatter.
Labels: 1 = active, -1 = inactive

COMPOUND: OCC1CC=CCC1 (configuration not stated)
CLASSIFICATION: -1
--
COMPOUND: c1cnc2c(n1)CCCC2
CLASSIFICATION: -1
--
COMPOUND: CO[Si](C)(OC)OC
CLASSIFICATION: -1
--
COMPOUND: CO[C@@]12[C@H](COC(N)=O)C3=C(C(=O)C(C)=C(N)C3=O)N1C[C@@H]1N[C@@H]12
CLASSIFICATION: -1
--
COMPOUND: C=CC(C)=CCC=C(C)C
CLASSIFICATION: -1
--
COMPOUND: CC1(C)C(=O)N(Br)C(=O)N1Cl
CLASSIFICATION: -1
--
COMPOUND: Nc1ccc(Cl)cc1[N+](=O)[O-]
CLASSIFICATION: -1
--
COMPOUND: CO[C@H]1C=CO[C@@]2(C)Oc3c(C)c(O)c4c(O)c(c5c(c4c3C2=O)=NC2(CCN(CC(C)C)CC2)N=5)NC(=O)/C(C)=C\C=C/[C@H](C)[C@H](O)[C@@H](C)[C@@H](O)[C@@H](C)[C@H](OC(C)=O)[C@@H]1C
CLASSIFICATION: -1
--
COMPOUND: CCN(CC)CCNC(=O)c1ccc(NC(C)=O)cc1
CLASSIFICATION: -1
--
COMPOUND: COC(=O)c1cc(Cl)ccc1NS(=O)(=O)C(F)(F)F
CLASSIFICATION: -1
--
COMPOUND: O=C1NCCN1
CLASSIFICATION: -1
--
COMPOUND: CC[C@H](NC(=O)c1cc(F)ccc1NS(=O)(=O)c1cccc2cccnc12)c1ccccc1
CLASSIFICATION: 1

====

- TARGET_SYSTEM: Estrogen receptor (Homo sapiens)
- ASSAY_INFO: qHTS assay to identify small molecule agonists of the estrogen receptor alpha (ER-alpha) signaling pathway (AID 743075);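 also: HEK293 GripTite cells with ER-alpha and UAS-driven beta-lactamase reporter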
- REPORTED_CONDITIONS: HEK293 ER-alpha-UAS-bla, beta-lactamase FRET ratio, 18 h; series mostly up to 70.1 µM
Calls of active or inactive are those of the source. Calls follow the shape of the full dose curve.
Labels: active, inactive

COMPOUND: NC(=O)N(O)[C@@H]1C=C[C@H](Oc2cccc(Oc3ccc(F)cc3)c2)C1
CLASSIFICATION: inactive
--
COMPOUND: COCCOC(=O)C1=C(C)NC(C)=C(C(=O)OC/C=C/c2ccccc2)C1c1cccc([N+](=O)[O-])c1 (centres undefined)
CLASSIFICATION: inactive
--
COMPOUND: CCn1nc(C)c2c1C(=O)NCC(c1ccc(O)cc1)=N2
CLASSIFICATION: inactive
--
COMPOUND: Cc1nc2ccccn2c(=O)c1CCN1CCC(C(=O)c2ccc(F)cc2)CC1
CLASSIFICATION: inactive
--
COMPOUND: c1cc[c]([Bi]([c]2ccccc2)[c]2ccccc2)cc1
CLASSIFICATION: inactive
--
COMPOUND: O=C(OCCOCCO)c1ccccc1Nc1cccc(C(F)(F)F)c1
CLASSIFICATION: inactive
--
COMPOUND: CC#N
CLASSIFICATION: inactive
--
COMPOUND: CC1=CC(O)CC(C)(C)C1 (centres undefined)
CLASSIFICATION: inactive
--
COMPOUND: COc1ccc(CCC(=O)c2c(O)cc(O[C@@H]3O[C@H](CO)[C@@H](O)[C@H](O)[C@H]3O[C@@H]3O[C@@H](C)[C@H](O)[C@@H](O)[C@H]3O)cc2O)cc1O
CLASSIFICATION: inactive
--
COMPOUND: CC(Cl)C(Cl)Cl (centres undefined)
CLASSIFICATION: inactive
--
COMPOUND: CC(C)=CC=O
CLASSIFICATION: inactive
--
COMPOUND: CCOC(=O)CC(=O)C(=O)OCC
CLASSIFICATION: inactive
--
COMPOUND: CC(CCO)CCc1ccccc1 (centres undefined)
CLASSIFICATION: inactive
--
COMPOUND: CCOC(=O)c1ccccc1C
CLASSIFICATION: inactive
--
COMPOUND: O=C1NCCN1
CLASSIFICATION: inactive
--
COMPOUND: C=CCOC(=O)/C=C\C(=O)OCC=C
CLASSIFICATION: inactive
--
COMPOUND: Cc1ccc(S)cc1
CLASSIFICATION: inactive
--
COMPOUND: CCC(C)(C)C1CCC(O)CC1 (centres undefined)
CLASSIFICATION: inactive
--
COMPOUND: COC(=O)[C@@H]1CC2=CC(=O)CC[C@]2(C)[C@@]23O[C@@H]2C[C@@]2(C)[C@@H](CC[C@@]24CCC(=O)O4)[C@H]13
CLASSIFICATION: inactive
--
COMPOUND: CCOc1cc(N)c(Cl)cc1C(=O)NCC1CN(Cc2ccc(F)cc2)CCO1 (centres undefined)
CLASSIFICATION: inactive
--
COMPOUND: CNC(=S)NC
CLASSIFICATION: inactive
--
COMPOUND: CC(=O)OCC(=O)[C@H]1CC[C@H]2[C@@H]3CCC4=CC(=O)CC[C@]4(C)[C@H]3CC[C@]12C
CLASSIFICATION: inactive
--
COMPOUND: CCn1cc(C(=O)O)c(=O)c2cc(F)c(N3CCNCC3)nc21
CLASSIFICATION: inactive
--
COMPOUND: CC(=O)Nc1ccc(N)cc1
CLASSIFICATION: inactive
--
COMPOUND: CCCCN(CCCC)C(=S)SSC(=S)N(CCCC)CCCC
CLASSIFICATION: inactive
--
COMPOUND: Cc1occc1C(=O)Nc1ccc(C(=O)N2CCC(F)(F)/C(=C\C(=O)N3CCC(N4CCCCC4)CC3)c3ccccc32)cc1
CLASSIFICATION: inactive
--
COMPOUND: O=C(N/N=C/c1ccc([N+](=O)[O-])o1)c1ccc(O)cc1
CLASSIFICATION: inactive
--
COMPOUND: CCCCCCCCCCCCCCCCBr
CLASSIFICATION: inactive
--
COMPOUND: CC1CN(c2cc3c(cc2F)c(=O)c(C(=O)O)cn3-c2ccc(F)cc2F)CCN1 (centres undefined)
CLASSIFICATION: inactive
--
COMPOUND: O=C1OCCN1/N=C/c1ccc([N+](=O)[O-])o1
CLASSIFICATION: active
--
COMPOUND: CCC1(C)CC(=O)NC1=O (centres undefined)
CLASSIFICATION: inactive
--
COMPOUND: Cc1cc(C(=C2C=CC(=Nc3ccc(S(=O)(=O)O)cc3S(=O)(=O)O)C=C2)c2ccc(Nc3ccc(S(=O)(=O)O)cc3)cc2)ccc1N
CLASSIFICATION: inactive
--
COMPOUND: CN1CCN(c2c(F)cc3c(=O)c(C(=O)O)cn4c3c2OCN4C)CC1
CLASSIFICATION: inactive
--
COMPOUND: CN(C)CCOC1=Cc2ccccc2Sc2ccc(Cl)cc21
CLASSIFICATION: inactive
--
COMPOUND: Cc1cc2nc3ccc(=[N+](C)C)cc-3sc2cc1N
CLASSIFICATION: inactive
--
COMPOUND: CC(C)(C)CC(C)(C)c1ccc(OCCO)cc1
CLASSIFICATION: inactive
--
COMPOUND: OC(CCCN1CCCCC1)(c1ccccc1)c1ccccc1
CLASSIFICATION: inactive
--
COMPOUND: CCCOc1ccc(S(=O)(=O)N2CCN(CC)CC2)cc1-c1nc2c(CC)n(Cc3ccccn3)nc2c(=O)[nH]1
CLASSIFICATION: inactive
--
COMPOUND: CCOC(=O)/C=C/C(=O)O
CLASSIFICATION: inactive
--
COMPOUND: COCC(O)CO (centres undefined)
CLASSIFICATION: inactive
--
COMPOUND: Brc1cc(-c2ccc(Br)c(Br)c2Br)cc(Br)c1Br
CLASSIFICATION: inactive
--
COMPOUND: O=C(CCCN1CCC(O)(c2ccc(Br)cc2)CC1)c1ccc(F)cc1
CLASSIFICATION: inactive
--
COMPOUND: Nc1ccc(S(=O)(=O)O)cc1
CLASSIFICATION: inactive
--
COMPOUND: CCCCCCCCCCCC[N+](C)(C)CCCS(=O)(=O)[O-]
CLASSIFICATION: inactive
--
COMPOUND: O=C(CCC1CCN(Cc2ccccc2)CC1)c1ccc2c(c1)NCCCC2
CLASSIFICATION: inactive
--
COMPOUND: NC(=O)Nc1ccc(Cl)cc1
CLASSIFICATION: inactive
--
COMPOUND: COc1cc2c(cc1OC)-c1cc(=Nc3c(C)cc(C)cc3C)n(C)c(=O)n1CC2
CLASSIFICATION: inactive
--
COMPOUND: CO/N=C1\CN(c2nc3c(cc2F)c(=O)c(C(=O)O)cn3C2CC2)CC1CN (centres undefined)
CLASSIFICATION: inactive
--
COMPOUND: COc1cc2[nH]c(=O)[nH]c(=O)c2cc1OC
CLASSIFICATION: inactive
